The measured values listed here are drawn from patent EP4671273A1.

Biological target: T1, Recombinant hIL-21-Fc (AcroBiosystems) (human, UniProt Q9HBE4 30-162)
T1 construct: bought; also called rhIL-21; not shown: Fc of the bought reagent, not described
T1 sequence (Q9HBE4 30-162): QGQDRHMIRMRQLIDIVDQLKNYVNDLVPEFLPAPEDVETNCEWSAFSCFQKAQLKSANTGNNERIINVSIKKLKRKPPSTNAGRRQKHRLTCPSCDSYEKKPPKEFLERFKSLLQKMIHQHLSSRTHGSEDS
Test: SPR, Fab on captured rhIL-21-Fc
Entries and their measured koff follow.

binder	unit_symbol	result_comparator	koff
ZAP122m20 Fab (Fab, V domains shown, Fab) VH: QVQLQESGPGLVKPSETLSLTCTVSGGSISSDFWGWIRQPPGKGLEWIGYISSRGSTNYNPSLKRRVTISVDTSRNQFSLKLSSVTAADTAVYYCARAAGVTDFDFWGQGTLVTVSS VL: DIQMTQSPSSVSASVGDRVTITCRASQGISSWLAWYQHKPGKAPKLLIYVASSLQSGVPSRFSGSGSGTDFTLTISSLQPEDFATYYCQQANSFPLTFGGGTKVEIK	s⁻¹	=	1.94e-05
ZAP122m18 Fab (Fab, V domains shown, Fab; also called clone m18) VH: QVQLQESGPGLVKPSETLSLTCTVSGGSISSDFWGWIRQPPGKGLEWIGYISSRGSTNYNPSLKSRVTISVDTSRNQFSLKLSSVTAADTAVYYCARSAGVTDFDFWGQGTLVTVSS VL: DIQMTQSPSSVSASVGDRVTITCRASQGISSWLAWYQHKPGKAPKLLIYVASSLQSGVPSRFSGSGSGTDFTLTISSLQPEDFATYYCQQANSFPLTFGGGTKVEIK	s⁻¹	=	1.4e-05
ZAP122m14 Fab (Fab, V domains shown, Fab) VH: QVQLQESGPGLVKPSETLSLTCTVSGGSISSDFWSWIRQPPGKGLEWIGYISSRGSTNYNPSLKRRVTISVDTSRNQFSLKLSSVTAADTAVYYCARSAGVTDFDFWGQGTLVTVSS VL: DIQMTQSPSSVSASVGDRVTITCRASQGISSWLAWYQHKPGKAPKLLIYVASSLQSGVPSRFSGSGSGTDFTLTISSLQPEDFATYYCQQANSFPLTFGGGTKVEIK	s⁻¹	=	0.000263
ZAP122m25 Fab (Fab, V domains shown, Fab) VH: QVQLQESGPGLVKPSETLSLTCTVSGGSISSDFWGWIRQPPGKGLEWIGYISSRGSTNYNPSLKRRVTISVDTSRNQFSLKLSSVTAADTAVYYCARSAGVTDADFWGQGTLVTVSS VL: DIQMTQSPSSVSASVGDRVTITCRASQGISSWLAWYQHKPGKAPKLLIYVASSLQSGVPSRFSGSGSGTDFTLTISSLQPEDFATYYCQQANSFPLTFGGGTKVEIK	s⁻¹	=	0.00059
ZAP122m27 Fab (Fab, V domains shown, Fab) VH: QVQLQESGPGLVKPSETLSLTCTVSGGSISSDFWGWIRQPPGKGLEWIGYISSRGSTNYNPSLKRRVTISVDTSRNQFSLKLSSVTAADTAVYYCARSAGVTDFDAWGQGTLVTVSS VL: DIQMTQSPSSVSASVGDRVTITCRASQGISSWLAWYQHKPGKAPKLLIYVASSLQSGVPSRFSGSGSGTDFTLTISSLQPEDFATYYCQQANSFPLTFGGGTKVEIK	s⁻¹	<	1e-05
